Biological target: Voltage-dependent N-type calcium channel subunit alpha-1B (Homo sapiens, UniProt Q00975)
Sequence (Q00975 whole entry): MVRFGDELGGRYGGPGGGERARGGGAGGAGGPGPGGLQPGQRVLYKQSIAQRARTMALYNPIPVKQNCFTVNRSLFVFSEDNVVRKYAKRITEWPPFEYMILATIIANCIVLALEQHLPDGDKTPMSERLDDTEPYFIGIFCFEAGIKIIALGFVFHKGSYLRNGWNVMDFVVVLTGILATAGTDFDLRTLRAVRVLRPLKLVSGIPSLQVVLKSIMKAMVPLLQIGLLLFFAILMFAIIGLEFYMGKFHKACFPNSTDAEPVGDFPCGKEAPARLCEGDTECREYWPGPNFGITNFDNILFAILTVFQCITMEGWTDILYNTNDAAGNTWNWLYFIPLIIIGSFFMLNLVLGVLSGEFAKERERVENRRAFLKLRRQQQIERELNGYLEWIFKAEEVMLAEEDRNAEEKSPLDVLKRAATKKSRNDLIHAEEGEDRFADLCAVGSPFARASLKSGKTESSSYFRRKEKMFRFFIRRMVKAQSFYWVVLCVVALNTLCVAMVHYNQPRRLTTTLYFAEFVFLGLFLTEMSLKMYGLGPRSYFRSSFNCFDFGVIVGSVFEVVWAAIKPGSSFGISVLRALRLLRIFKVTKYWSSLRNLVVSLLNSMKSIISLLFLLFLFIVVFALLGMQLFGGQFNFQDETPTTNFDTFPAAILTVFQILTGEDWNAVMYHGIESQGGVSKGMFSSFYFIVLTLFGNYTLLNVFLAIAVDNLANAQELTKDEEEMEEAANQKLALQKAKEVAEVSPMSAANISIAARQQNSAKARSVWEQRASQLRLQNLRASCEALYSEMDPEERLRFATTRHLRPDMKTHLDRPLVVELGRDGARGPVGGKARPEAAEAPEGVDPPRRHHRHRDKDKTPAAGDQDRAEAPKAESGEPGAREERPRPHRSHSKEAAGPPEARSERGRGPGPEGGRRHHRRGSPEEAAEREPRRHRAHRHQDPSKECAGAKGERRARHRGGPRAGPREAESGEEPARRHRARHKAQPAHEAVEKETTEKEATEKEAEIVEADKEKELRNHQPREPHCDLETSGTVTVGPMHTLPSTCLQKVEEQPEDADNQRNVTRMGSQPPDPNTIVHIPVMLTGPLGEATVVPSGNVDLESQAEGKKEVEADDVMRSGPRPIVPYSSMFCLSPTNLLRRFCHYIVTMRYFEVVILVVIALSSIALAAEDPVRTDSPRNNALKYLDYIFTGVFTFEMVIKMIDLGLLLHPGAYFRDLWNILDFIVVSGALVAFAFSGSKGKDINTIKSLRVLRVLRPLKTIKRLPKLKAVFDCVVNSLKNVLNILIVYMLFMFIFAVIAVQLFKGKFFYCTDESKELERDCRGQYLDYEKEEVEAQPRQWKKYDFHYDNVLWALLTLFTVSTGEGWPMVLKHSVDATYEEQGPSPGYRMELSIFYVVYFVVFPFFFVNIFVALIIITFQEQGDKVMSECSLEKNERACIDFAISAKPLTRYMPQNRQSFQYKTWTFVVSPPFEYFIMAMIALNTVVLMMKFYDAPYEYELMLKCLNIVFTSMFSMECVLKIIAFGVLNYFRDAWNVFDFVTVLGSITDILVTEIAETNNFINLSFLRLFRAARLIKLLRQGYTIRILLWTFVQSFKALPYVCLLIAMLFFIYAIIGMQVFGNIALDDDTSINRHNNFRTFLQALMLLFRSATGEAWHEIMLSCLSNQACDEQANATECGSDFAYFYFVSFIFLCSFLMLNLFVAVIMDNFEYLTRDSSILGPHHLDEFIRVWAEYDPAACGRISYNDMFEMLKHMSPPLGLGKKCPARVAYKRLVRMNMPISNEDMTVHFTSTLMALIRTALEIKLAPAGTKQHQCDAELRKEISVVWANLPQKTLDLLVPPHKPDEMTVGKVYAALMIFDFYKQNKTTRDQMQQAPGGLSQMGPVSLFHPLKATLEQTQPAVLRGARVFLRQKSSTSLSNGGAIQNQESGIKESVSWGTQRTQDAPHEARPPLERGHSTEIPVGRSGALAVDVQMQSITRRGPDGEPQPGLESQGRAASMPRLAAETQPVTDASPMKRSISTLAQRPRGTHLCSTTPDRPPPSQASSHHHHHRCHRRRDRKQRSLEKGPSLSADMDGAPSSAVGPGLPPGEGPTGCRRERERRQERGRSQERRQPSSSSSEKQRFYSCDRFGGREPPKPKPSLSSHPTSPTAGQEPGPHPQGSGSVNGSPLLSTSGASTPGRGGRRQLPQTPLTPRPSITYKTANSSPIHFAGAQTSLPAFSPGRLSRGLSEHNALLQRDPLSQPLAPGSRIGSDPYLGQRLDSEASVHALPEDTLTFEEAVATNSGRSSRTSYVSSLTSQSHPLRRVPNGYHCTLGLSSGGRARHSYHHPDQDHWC
Test: Inhibitory activity against N-type calcium channel by calcium influx into IMR32 cells
# pIC50 listing for each entry below
Note: pIC50 values are expressed as the negative base-10 logarithm of concentration in M.

Take a look at these entries with their results.
* CC1=NC(C)=C(C(=O)O)C(c2cccnc2)/C1=C(\O)OC/C=C/c1ccccc1 (stereo not given) | 4.62
* CC1=NC(C)=C(C(=O)O)C(c2ccccc2[N+](=O)[O-])/C1=C(\O)OC/C=C/c1ccccc1 (stereo not given) | 4.43
* CC1=NC(C)=C(C(=O)O)C(c2cccc(I)c2)/C1=C(\O)OC/C=C/c1ccccc1 (stereo not given) | 5.77
* CC1=C(C(=O)O)C(c2cccc(Cl)c2)C(C(=O)NC/C=C/c2ccccc2)=C(C)N1 (stereo not given) | 5.35

Moving on to another compound below.
The observed pIC50 for CC1=NC(C)=C(C(=O)O)C(c2ccoc2)/C1=C(\O)OC/C=C/c1ccccc1 (stereo not given) when tested with Voltage-dependent N-type calcium channel subunit alpha-1B (Homo sapiens, UniProt Q00975) stands at 4.96

* * *

Biological target: Voltage-dependent N-type calcium channel subunit alpha-1B (Homo sapiens, UniProt Q00975)
Assay: Inhibitory activity against N-type calcium channel by calcium influx into IMR32 cells
Listing: pIC50 of selected compounds
Scale: negative log10 of molar concentration, which is what pIC50 denotes.

• CC1=NC(C)=C(C(=O)O)C(c2cccc(F)c2)/C1=C(\O)OC/C=C/c1ccccc1 (configuration not stated) = 5.89

Looking up CC1=NC(C)=C(C(=O)O)C(c2cccc(C)c2)/C1=C(\O)OC/C=C/c1ccccc1 (configuration not stated) , I see its pIC50 listed as 5.74

Measured pIC50, CC1=C(C(=O)O)C(c2cccc(Cl)c2)C(C(=O)OCCC(c2ccccc2)c2ccccc2)=C(C(F)(F)F)N1 (configuration not stated) : 5.77

Kindly note the recorded pIC50 for CC1=NC(C)=C(C(=O)O)C(c2cccc(Cl)c2)/C1=C(\O)OCC=C(c1ccccc1)c1ccccc1 (configuration not stated) , which is 5.41

* * *

Biological target: Voltage-dependent N-type calcium channel subunit alpha-1B (Homo sapiens)
Test: Inhibitory activity against N-type calcium channel by calcium influx into IMR32 cells
RECORDED METRIC: IC50
Number plus unit, in that order.

Below, each entry is followed by its recorded IC50 result.
- CC1=NC(C)=C(C(=O)O)C(c2cccc(Cl)c2)/C1=C(\O)OCCC(c1ccccc1)c1ccccc1 (stereo not drawn): 1.1 µM
- CC1=NC(C)=C(C(=O)O)C(c2cccc(Cl)c2)/C1=C(\O)OC/C=C/c1ccc(Cl)cc1 (stereo not drawn): 1.5 µM
- CC1=NC(C)=C(C(=O)O)C(c2cccc(Cl)c2)/C1=C(\O)OC/C=C/c1ccc(C)cc1 (stereo not drawn): 0.89 µM
- CC1=NC(C)=C(C(=O)O)C(c2ccc([N+](=O)[O-])cc2)/C1=C(\O)OC/C=C/c1ccccc1 (stereo not drawn): 21 µM

// molecule CC1=NC(C)=C(C(=O)O)C(c2cccc(Cl)c2)/C1=C(\O)OC/C=C/C1CCCCC1 (stereo not drawn) , assay Voltage-dependent N-type calcium channel subunit alpha-1B (Homo sapiens), IC50 value: 0.83 µM

// assay Voltage-dependent N-type calcium channel subunit alpha-1B (Homo sapiens), entry CC1=NC(C)=C(C(=O)O)C(c2cccc(Cl)c2)/C1=C(\O)OC/C=C/c1ccncc1 (stereo not drawn) , IC50 value = 6.2 µM

Tested on Voltage-dependent N-type calcium channel subunit alpha-1B (Homo sapiens): COCCOC(=O)C1=C(C)NC(C)=C(C(=O)OC/C=C/c2ccccc2)C1c1cccc([N+](=O)[O-])c1 (stereo not drawn) . Observed IC50: 1.6 µM

Item CC1=NC(C)=C(C(=O)O)C(c2ccccc2)/C1=C(\O)OC/C=C/c1ccccc1 (stereo not drawn) was tested on Voltage-dependent N-type calcium channel subunit alpha-1B (Homo sapiens); the reported IC50 is 2 µM

Lab note: molecule CC1=NC(C)=C(C(=O)O)C(c2cccc(C(=O)O)c2)/C1=C(\O)OC/C=C/c1ccccc1 (stereo not drawn) tested on Voltage-dependent N-type calcium channel subunit alpha-1B (Homo sapiens); recorded IC50 was 37 µM

Reading of IC50 for CC1=C(C(=O)O)C(c2cccc([N+](=O)[O-])c2)C(C(=O)OC/C=C/c2ccccc2)=C(C)N1 (stereo not drawn) with Voltage-dependent N-type calcium channel subunit alpha-1B (Homo sapiens): 3.5 µM

Hey, Voltage-dependent N-type calcium channel subunit alpha-1B (Homo sapiens) data for CC1=NC(C)=C(C(=O)O)C(c2cccc(Cl)c2)/C1=C(\O)OCCC(c1ccccn1)c1ccccn1 (stereo not drawn) : IC50 came out at 10 µM

Recorded IC50 for COC(=O)c1cccc(C2C(C(=O)O)=C(C)N=C(C)/C2=C(/O)OC/C=C/c2ccccc2)c1 (stereo not drawn) on Voltage-dependent N-type calcium channel subunit alpha-1B (Homo sapiens) was 4.6 µM

Tested on Voltage-dependent N-type calcium channel subunit alpha-1B (Homo sapiens), the item CC1=NC(C)=C(C(=O)O)C(c2cccc(Cl)c2)/C1=C(\O)OCc1ccc2ccccc2c1 (stereo not drawn) showed IC50 equal to 3.9 µM
